Value source: ChEMBL document CHEMBL4513216

Test system: Plasmodium berghei
Assay: Screen against P. berghei liver stage (PbLuc), transformed with Luciferase, at 10uM
Assay type: functional, HepG2
Stated conditions: tested at 10 uM
The campaign covered roughly 69,000 compounds. About 8,600 (12%) showed an effect of 50% or more. For the sample, strong results were picked, then their nearest neighbours and some compounds at random.
// INHIBITION lookup, one value per entry
Form entry: value (%) — number only.

Example compounds with recorded INHIBITION:
{"Compound": "COc1c(CNCCc2c[nH]c3cc(F)ccc23)c(C(C)C)nn1C", "INHIBITION (%)": 44.2}
{"Compound": "CCNc1nnc(SC(C(=O)NCc2cccnc2)C(C)C)s1 (stereo unspecified)", "INHIBITION (%)": -7.98}
{"Compound": "COCC(=O)N1CCN(S(=O)(=O)c2ccccc2)[C@H]2CS(=O)(=O)C[C@H]21", "INHIBITION (%)": 25.8}
{"Compound": "c1cc(CN2CCC(c3nnc4n3CCCCC4)CC2)c2nonc2c1", "INHIBITION (%)": 64.4}
{"Compound": "c1ccc2c(c1)CC(N1CCCN(Cc3cccc4nonc34)CC1)C2", "INHIBITION (%)": 49}
{"Compound": "CC(C)[C@@H]1CN(Cc2ccccn2)C[C@H]1NS(=O)(=O)N(C)C", "INHIBITION (%)": 9.72}

What measured INHIBITION is associated with CC(C)c1cc(NC(=O)CNC2CCCN(c3cccnn3)C2)on1 (stereo unspecified) on Plasmodium berghei?
42.9

What measured INHIBITION is associated with COc1c(CNCCc2c[nH]c3cc(F)ccc23)c(C)nn1C on Plasmodium berghei?
70.2

What measured INHIBITION is associated with CNC(=O)c1sc2ccccc2c1CC1CCCCN1Cc1ncc[nH]1 (stereo unspecified) on Plasmodium berghei?
42.2

What measured INHIBITION is associated with O=C(c1cccc(C(F)(F)F)c1)N1CC(=O)N(C2CCC2)CC(O)C1 (stereo unspecified) on Plasmodium berghei?
21.5

What measured INHIBITION is associated with CC(C)C(NC(=O)NCC1CC1)c1nnc2n1CCC2 (stereo unspecified) on Plasmodium berghei?
43.4

====

// INHIBITION lookup, one value per entry
Test system: Plasmodium berghei
Assay: Screen against P. berghei liver stage (PbLuc), transformed with Luciferase, at 10uM
Assay type: functional, HepG2
Stated conditions: tested at 10 uM
In all, about 69,000 compounds went through this assay and about 8,600 (12%) showed an effect of 50% or more. The entries come from a sample that favours strong results as a whole.
Form entry: value (%) — number only.

Example compounds with recorded INHIBITION:
{"Compound": "NC(=O)C1CCN(C(=O)CCn2ccc3ccc(Br)cc32)CC1", "Numeric readout": 10.6}
{"Compound": "CC(=O)N1CCN([C@@H]2CN(C(=O)c3ccccc3)C[C@H]2O)CC1", "Numeric readout": 11.8}
{"Compound": "CC(=O)N1CCCN(C2CCCCc3ccccc32)CC1 (stereo unspecified)", "Numeric readout": 55.4}
{"Compound": "O=C1CN(C(=O)CC2c3ccccc3CCc3ccccc32)CCN1", "Numeric readout": 42.1}
{"Compound": "NC(=O)N1CCCN(C2CCCCc3ccccc32)CC1 (stereo unspecified)", "Numeric readout": 13.7}

API: the following record is the query input.
What measured INHIBITION is associated with CC(=O)N1CCN(C2CCc3ccccc32)CC1 (stereo unspecified) on Plasmodium berghei?
64.7
